Data provenance: paper PMC8851771

- Target Desc: AeNobo-WT (Aedes aegypti)
- Test Details: GST activity inhibition assay with 3,4-DNADCF, wild-type AeNobo
- Type: biochemical
- Run Conditions: text and figures; 3,4-DNADCF; read-out: IC50 against AeNobo (WT)
Metric Name: IC50 (µM)
Give the quantity in µM, number only.

Give IC50 for the following molecule: C[C@]12CC[C@@H]3c4ccc(O)cc4CC[C@H]3[C@@H]1CC[C@@H]2O [17β-estradiol]
21.3

---

- Target Desc: AeNobo-WT (Aedes aegypti)
- Test Details: GST activity inhibition assay with 3,4-DNADCF, wild-type AeNobo
- Format: biochemical
- Run Conditions: Table S5, luteolin derivatives against AeNobo; read-out: IC50 (μM) (mean ± s.d.)
Metric Name: IC50

O=c1cc(-c2ccccc2)oc2cc(O)cc(O)c12 [Chrysin] :: > 25 µM

Consider the additional compound presented here.
Give IC50 for the following compound: O=c1cc(-c2ccc(O)cc2)oc2cc(O)cc(O)c12 [Apigenin]
> 25 µM

---

- Target Desc: AeNobo-WT (Aedes aegypti, UniProt A0A1S4FIB3)
- Sequence (A0A1S4FIB3 entry or part of it): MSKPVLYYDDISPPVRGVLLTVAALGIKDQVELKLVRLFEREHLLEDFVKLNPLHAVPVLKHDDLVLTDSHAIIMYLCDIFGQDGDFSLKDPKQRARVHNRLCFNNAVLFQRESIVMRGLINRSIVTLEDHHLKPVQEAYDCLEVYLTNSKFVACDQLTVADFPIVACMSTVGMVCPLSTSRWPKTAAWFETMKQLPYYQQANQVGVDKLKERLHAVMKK
- Test Details: GST activity inhibition assay with 3,4-DNADCF, wild-type AeNobo
- Type: biochemical
- Run Conditions: read-out: IC50 (μM) (mean ± s.d.)
# IC50 annotations
Give the quantity in µM, number only.

The cases that follow already have their IC50 on record.
O=c1c(-c2ccc(O)cc2)coc2cc(O)c(O)cc12 [Desmethylglycitein, 4′,6,7-trihydroxyisoflavone] :: 0.293
O=c1cc(-c2ccc(O)c(O)c2)oc2cc(O)ccc12 [7,3’,4’-Trihydroxyflavone, 7,3′,4′-trihydroxyflavone] :: 10.3

Consider the additional compound presented here.
Give IC50 for the following compound: O=c1c(-c2ccc(O)cc2)coc2cc(O)cc(O)c12
1.86

---

- Target Desc: AeNobo-WT (Aedes aegypti, UniProt A0A1S4FIB3)
- Test Details: GST activity inhibition assay with 3,4-DNADCF, wild-type AeNobo
- Assay type: biochemical
Metric Name: pIC50
// pIC50: -log10(molar conc.)

Give pIC50 for the following compound: O=c1c(-c2ccccc2)coc2cc(O)ccc12 [7-Hydroxyisoflavone]
5.25

---

- Target Desc: AeNobo-WT (Aedes aegypti)
- Test Details: GST activity inhibition assay with 3,4-DNADCF, wild-type AeNobo
- Assay type: biochemical
- Run Conditions: Table 1; GSH conjugation of 3,4-DNADCF; read-out: IC50 to AeNobo-WT (μM) (mean ± s.d.)
Metric Name: IC50 (µM)
Give the quantity in µM, number only.

The cases that follow already have their IC50 on record.
O=C1CC(c2ccccc2O)Oc2ccccc21 (stereo not drawn) [2′-Hydroxyflavanone] :: 4.76
O=c1c(O)c(-c2ccc(O)cc2)oc2cc(O)cc(O)c12 :: 4.91
COc1cc(-c2[o+]c3cc(O)cc(O)c3cc2O)cc(O)c1O :: 14.9
COc1ccc(-c2coc3cc(O)cc(O)c3c2=O)cc1 :: 1.84
Oc1cc(O)c2cc(O)c(-c3ccc(O)c(O)c3)[o+]c2c1 [Cyanidin chloride] :: 2.15

Give IC50 for the following compound: O=c1c(O)c(-c2ccc(O)c(O)c2)oc2cc(O)ccc12
1.69

---

- Target Desc: AeNobo-WT (Aedes aegypti, UniProt A0A1S4FIB3)
- Test Details: GST activity inhibition assay with 3,4-DNADCF, wild-type AeNobo
- Format: biochemical
- Protocol: We prepared a purified AeNobo recombinant protein (220-aa length) using an Escherichia coli protein expression system. The GST enzymatic activity was examined using the fluorogenic artificial substrate 3,4-dinitrobenzamidedichlorofluorescein (3,4-DNADCF). The IC50 value was measured using an in vitro assay system as described previously. […] The fluorescence intensity derived from 4-GS-3-NADCF, a product of this reaction, was measured for 3 min. […]
Metric Name: IC50

Find the measured IC50 of CC(C)(c1ccc(O)cc1)c1ccc(O)cc1 with AeNobo-WT (Aedes aegypti, UniProt A0A1S4FIB3) as test system.
> 25 µM

Find the measured IC50 of Cn1c(N)nc2ncc(-c3ccccc3)cc21 with AeNobo-WT (Aedes aegypti, UniProt A0A1S4FIB3) as test system.
> 25 µM

Find the measured IC50 of ClC(Cl)=C(c1ccc(Cl)cc1)c1ccc(Cl)cc1 with AeNobo-WT (Aedes aegypti, UniProt A0A1S4FIB3) as test system.
> 25 µM

Find the measured IC50 of O=c1c(O)c(-c2cc(O)c(O)c(O)c2)oc2cc(O)cc(O)c12 with AeNobo-WT (Aedes aegypti, UniProt A0A1S4FIB3) as test system.
2.91 µM

Find the measured IC50 of Oc1ccc(C(c2ccc(O)cc2)C(Cl)(Cl)Cl)cc1 with AeNobo-WT (Aedes aegypti, UniProt A0A1S4FIB3) as test system.
> 25 µM

Find the measured IC50 of O=c1c(-c2ccc(O)cc2)coc2cc(O)ccc12 with AeNobo-WT (Aedes aegypti, UniProt A0A1S4FIB3) as test system.
3.87 µM

Find the measured IC50 of O=c1cc(-c2ccc(O)c(O)c2)oc2cccc(O)c12 [5,3’,4’-Trihydroxyflavone, 5,3′,4′-trihydroxyflavone] with AeNobo-WT (Aedes aegypti, UniProt A0A1S4FIB3) as test system.
1.64 µM

Find the measured IC50 of C[C@H]1CCCC(=O)CCC/C=C/c2cc(O)cc(O)c2C(=O)O1 with AeNobo-WT (Aedes aegypti, UniProt A0A1S4FIB3) as test system.
> 25 µM

Find the measured IC50 of O=c1c(O)c(-c2ccc(O)c(O)c2)oc2cc(O)cc(O)c12 with AeNobo-WT (Aedes aegypti, UniProt A0A1S4FIB3) as test system.
0.963 µM

---

- Target Desc: AeNobo-WT (Aedes aegypti, UniProt A0A1S4FIB3)
- Test Details: GST activity inhibition assay with 3,4-DNADCF, wild-type AeNobo
- Assay type: biochemical
- Run Conditions: Table 1; GSH conjugation of 3,4-DNADCF; read-out: IC50 to AeNobo-WT (μM) (mean ± s.d.)
Metric Name: IC50

O=C1C[C@@H](c2ccc(O)cc2)Oc2cc(O)cc(O)c21 [Naringenin] :: > 25 µM

Give IC50 for the following molecule: Oc1ccc([C@H]2COc3cc(O)ccc3C2)cc1 [S-equol]
> 25 µM

Give IC50 for the following molecule: COc1ccc(-c2oc3cc(O)cc(O)c3c(=O)c2O)cc1O [Tamarixetin]
> 25 µM
